Where do these numbers come from? They come from patent US20090291081A1.

Target: T1, human IL-1α (human, UniProt P01583 113-271)
T1 sequence (looked up): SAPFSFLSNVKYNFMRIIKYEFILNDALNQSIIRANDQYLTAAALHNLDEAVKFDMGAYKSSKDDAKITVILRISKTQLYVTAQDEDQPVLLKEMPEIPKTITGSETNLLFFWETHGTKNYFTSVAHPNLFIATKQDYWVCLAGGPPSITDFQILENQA
Assay: cell-based or functional assay
quantity: MRC5 ND50 (nM)
Dear colleague, please return just the value in nM, with no unit written.

ABT1-86 (other, VH dAb) VH: EVQLLESGGGLVQPGGSLRLSCAASGFTFDRYIMAWVRQAPGKGLEWVSSITPSGAATYYADSVKGRFTISRDNSKNTLYLQMNSLRAEDTAVYYCAEEPADRYSTWTFDYWGQGTLVTVSS :: 900

Proceeding to the next binder to report its MRC5 ND50.
-- ask Can you share its MRC5 ND50? I mean this binder: ABT1-95 (other, VK dAb) VL: DIQMTQSPSSLSASVGDRVTITCRASQPIHGNLRWYQQKPGKAPKLLIYNISNLQSGVPSRFSGSGSGTDFTLTISSLQPEDFATYYCQQGYRWPVTFGQGTKVEIKR
-- reply 800
